Biological target: EGFR (Homo sapiens)
Construct: endogenous in cells
Sequence (P00533 25-1210): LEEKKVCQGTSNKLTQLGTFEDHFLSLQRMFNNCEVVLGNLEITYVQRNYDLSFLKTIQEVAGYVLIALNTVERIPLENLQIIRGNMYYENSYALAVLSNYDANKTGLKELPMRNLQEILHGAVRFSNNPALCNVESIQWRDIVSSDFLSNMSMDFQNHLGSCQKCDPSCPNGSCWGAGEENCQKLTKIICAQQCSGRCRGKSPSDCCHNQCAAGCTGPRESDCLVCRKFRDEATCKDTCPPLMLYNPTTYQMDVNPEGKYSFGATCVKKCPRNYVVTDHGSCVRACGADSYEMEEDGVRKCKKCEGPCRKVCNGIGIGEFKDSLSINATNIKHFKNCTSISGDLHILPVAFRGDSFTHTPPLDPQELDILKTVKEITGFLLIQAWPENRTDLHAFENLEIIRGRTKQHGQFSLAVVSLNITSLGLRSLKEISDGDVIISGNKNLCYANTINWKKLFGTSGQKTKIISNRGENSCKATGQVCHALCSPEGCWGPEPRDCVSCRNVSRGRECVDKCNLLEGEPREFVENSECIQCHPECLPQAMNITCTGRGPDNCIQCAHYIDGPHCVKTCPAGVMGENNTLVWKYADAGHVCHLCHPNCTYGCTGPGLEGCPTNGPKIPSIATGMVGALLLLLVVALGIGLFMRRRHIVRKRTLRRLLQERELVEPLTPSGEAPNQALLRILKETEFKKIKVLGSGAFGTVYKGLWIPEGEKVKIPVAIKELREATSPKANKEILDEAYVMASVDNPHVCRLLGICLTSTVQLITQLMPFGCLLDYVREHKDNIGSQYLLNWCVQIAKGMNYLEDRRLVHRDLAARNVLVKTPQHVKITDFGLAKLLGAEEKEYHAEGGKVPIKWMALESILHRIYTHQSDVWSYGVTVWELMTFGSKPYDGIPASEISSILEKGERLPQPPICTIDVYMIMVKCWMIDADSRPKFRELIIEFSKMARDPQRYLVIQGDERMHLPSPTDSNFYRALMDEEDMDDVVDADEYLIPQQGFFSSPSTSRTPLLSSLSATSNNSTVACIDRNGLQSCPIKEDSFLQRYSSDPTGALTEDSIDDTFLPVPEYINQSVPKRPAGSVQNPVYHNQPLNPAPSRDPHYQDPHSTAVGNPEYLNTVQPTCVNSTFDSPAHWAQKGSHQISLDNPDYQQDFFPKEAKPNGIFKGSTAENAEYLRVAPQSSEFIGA
Test: EGFR Activation-Inhibiting Test (DELFIA, EGF-stimulated A431 cells)
Settings: 60 min compound, EGF stimulation 45 min, read-out: IC50 (inhibition of EGF-stimulated EGFR activation)
So I've got a bunch of compounds here, and I need their IC50 values.

Here are 3 compounds together with their reported answers.
CN1CC[C@@H]2CN(C(=O)Nc3ccc4ncnc(Nc5ccc(OCc6cccc(F)c6)c(Cl)c5)c4c3)C[C@@H]21 [Compound 7] = 241 nM
COc1cc2ncnc(Nc3ccc4c(cnn4Cc4cccc(F)c4)c3)c2cc1NC(=O)N1C[C@@H]2CCN(C)[C@@H]2C1 [Compound 2] = 439 nM
C#Cc1cccc(Nc2ncnc3cc(OC)c(NC(=O)N4C[C@H]5CCN(C)[C@H]5C4)cc23)c1 [Compound 3] = 6 nM

Look at each compound and report its IC50.
1. COc1cc2ncnc(Nc3ccc(OCc4cccc(F)c4)c(Cl)c3)c2cc1NC(=O)N1C[C@@H]2CCN(C)[C@@H]2C1 [Compound 4]
2. COc1cc2ncnc(Nc3ccc4c(cnn4Cc4cccc(F)c4)c3)c2cc1NC(=O)N1C[C@H]2CCN(C)[C@H]2C1 [Compound 1]
3. COc1cc2ncnc(Nc3ccc(OCc4cccc(F)c4)c(Cl)c3)c2cc1NC(=O)N1C[C@H]2CCN(C)[C@H]2C1 [Compound 5]
4. CN1CC[C@H]2CN(C(=O)Nc3ccc4ncnc(Nc5ccc(OCc6cccc(F)c6)c(Cl)c5)c4c3)C[C@H]21 [Compound 6]

### Response
16 nM
185 nM
44 nM
210 nM
